Recorded values, source ChEMBL document CHEMBL5346978.

- ASSAY TEXT: Tmax in ICR mouse at 10 mg/kg, po measured at 0.25 to 12 hrs by LC-MS/MS analysis
- Type: ADME, organism-based
- CONDITIONS USED: in vivo, time 0.25-12 hrs
QUANTITY: Tmax (h)

[P] CC(C)Oc1ccc(COc2ccc3c(c2)CCCN(S(=O)(=O)CCC(=O)O)C3)cc1C#N
[Q] CC(C)Oc1ccc(COc2ccc3c(c2)CCN(S(=O)(=O)CCC(=O)O)C3)cc1C#N
Query: For the pair P and Q , which entry has the numerically smaller recorded Tmax? Answer format: the label of the selected item.
Reply: Q
(Q: 0.5 h, P: 5 h)

* * *

- SYSTEM: CYP2D6 (Homo sapiens)
- Sequence (P10635 whole entry): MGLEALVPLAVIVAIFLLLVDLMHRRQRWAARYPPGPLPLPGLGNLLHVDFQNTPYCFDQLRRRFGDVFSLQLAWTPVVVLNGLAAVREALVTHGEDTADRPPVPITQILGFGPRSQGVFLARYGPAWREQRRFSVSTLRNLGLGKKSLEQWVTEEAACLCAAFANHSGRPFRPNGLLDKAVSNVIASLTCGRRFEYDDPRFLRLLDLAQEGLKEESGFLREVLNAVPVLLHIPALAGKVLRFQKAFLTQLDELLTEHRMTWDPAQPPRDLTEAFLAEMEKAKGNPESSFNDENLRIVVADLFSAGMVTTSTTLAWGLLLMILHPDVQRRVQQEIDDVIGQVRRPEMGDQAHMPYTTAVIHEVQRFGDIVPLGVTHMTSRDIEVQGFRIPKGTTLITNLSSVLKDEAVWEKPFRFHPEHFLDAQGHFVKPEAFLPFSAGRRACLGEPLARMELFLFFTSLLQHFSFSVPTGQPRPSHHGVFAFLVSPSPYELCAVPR
- ASSAY TEXT: Inhibition of CYP2D6 in human liver microsomes using dextromethorphan as substrate assessed as residual activity at 10 uM preincubated for 5 mins followed by substrate addition and measured after 15 mins in presence of NADPH by LC-MS/MS analysis
- Type: ADME, Microsome
- CONDITIONS USED: probe dextromethorphan, time 20 min, read-out: Activity
QUANTITY: activity at 0.25 h, 10 µM (%)

CC(C)Oc1ccc(COc2ccc3c(c2)OCCN(S(=O)(=O)CC(=O)O)C3)cc1C#N    91.1
CC(C)Oc1ccc(COc2ccc3c(c2)CCN(S(=O)(=O)CCC(=O)O)C3)cc1C#N    91.9
CC(C)Oc1ccc(COc2ccc3c(c2)OCCN(S(=O)(=O)CCC(=O)O)C3)cc1C#N    73.6

* * *

- SYSTEM: Sphingosine 1-phosphate receptor 1 (Homo sapiens)
- ASSAY TEXT: Agonist activity at S1P1 (unknown origin) expressed in human HEK293/Galpha15 cells assessed as Ca2+ activation measured for 2 hrs by FLIPR analysis
- Format: functional, cell-based
pEC50: −log10 of the molar value.
QUANTITY: pEC50

Check out these entries, answers already filled in.
CC(=O)NCCC(=O)N1CCc2cc(OCc3ccc(OC(C)C)c(C#N)c3)ccc2C1    5.77
CC(C)Oc1ccc(COc2ccc3c(c2)CCCN(S(=O)(=O)CCO)C3)cc1C#N    6.21
CC(C)Oc1ccc(COc2ccc3c(c2)CCN(C(=O)CC(=O)O)C3)cc1C#N    6.10

[I] CC(C)Oc1ccc(COc2ccc3c(c2)CCCN(S(=O)(=O)CCCO)C3)cc1C#N
[II] CC(C)Oc1ccc(COc2ccc3c(n2)CCN(S(=O)(=O)CCC(=O)O)C3)cc1C#N
[III] CC(C)Oc1ccc(COc2ccc3c(c2)OCCN(S(=O)(=O)CCC(=O)O)C3)cc1C#N
Query: Rank entries according to their pEC50, from the largest number down. I'd appreciate it if you listed the labels in the requested order.
Reply: III, II, I
(III: 7.17, II: 6.65, I: 6.30)

* * *

- ASSAY TEXT: Observed MRT (infinitive) in ICR mouse at 10 mg/kg, po measured at 0.25 to 12 hrs by LC-MS/MS analysis
- Format: ADME, organism-based
- CONDITIONS USED: in vivo, time 0.25-12 hrs
QUANTITY: MRT inf (h)

CC(C)Oc1ccc(COc2ccc3c(c2)CCCN(S(=O)(=O)CCC(=O)O)C3)cc1C#N    2.5
CC(C)Oc1ccc(COc2ccc3c(c2)CCN(S(=O)(=O)CCC(=O)O)C3)cc1C#N    1.9

* * *

- ASSAY TEXT: AUClast in ICR mouse at 10 mg/kg, po measured at 0.25 to 12 hrs by LC-MS/MS analysis
- Type: ADME, organism-based
- Set-up: time 0.25-12 hrs, dose 10 mg/kg, route po
- CONDITIONS USED: in vivo
QUANTITY: AUC(0-t) (ng·h/mL)

[I] CC(C)Oc1ccc(COc2ccc3c(c2)CCN(S(=O)(=O)CCC(=O)O)C3)cc1C#N
[II] CC(C)Oc1ccc(COc2ccc3c(c2)CCCN(S(=O)(=O)CCC(=O)O)C3)cc1C#N
Query: Of the pair I and II , name the member with the lesser recorded AUC(0-t). Write down the label attached to your selection.
Reply: II

* * *

- SYSTEM: CYP1A2 (Homo sapiens, UniProt P05177)
- Sequence (P05177 whole entry): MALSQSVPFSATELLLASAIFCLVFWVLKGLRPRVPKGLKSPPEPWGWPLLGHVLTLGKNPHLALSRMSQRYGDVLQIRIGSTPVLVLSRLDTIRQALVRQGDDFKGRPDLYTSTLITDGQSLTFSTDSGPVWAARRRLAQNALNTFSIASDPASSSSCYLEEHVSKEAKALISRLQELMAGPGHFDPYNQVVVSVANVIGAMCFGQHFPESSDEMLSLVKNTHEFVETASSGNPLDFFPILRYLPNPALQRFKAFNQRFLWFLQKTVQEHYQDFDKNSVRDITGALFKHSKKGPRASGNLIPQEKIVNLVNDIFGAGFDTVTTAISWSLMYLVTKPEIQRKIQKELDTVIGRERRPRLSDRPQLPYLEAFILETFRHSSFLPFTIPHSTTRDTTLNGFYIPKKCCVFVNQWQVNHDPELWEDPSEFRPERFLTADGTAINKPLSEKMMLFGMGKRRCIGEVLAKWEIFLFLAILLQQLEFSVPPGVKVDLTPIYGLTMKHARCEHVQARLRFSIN
- ASSAY TEXT: Inhibition of CYP1A2 in human liver microsomes using phenacetin as substrate assessed as residual activity at 10 uM preincubated for 5 mins followed by substrate addition and measured after 15 mins in presence of NADPH by LC-MS/MS analysis
- Assay type: ADME, Microsome
- CONDITIONS USED: probe phenacetin, time 20 min, read-out: Activity
QUANTITY: activity at 0.25 h, 10 µM (%)

Recorded activity at 0.25 h, 10 µM, per entry:
CC(C)Oc1ccc(COc2ccc3c(c2)CCCN(S(=O)(=O)CC(=O)O)C3)cc1C#N    86.9
CC(C)Oc1ccc(COc2ccc3c(c2)CCCN(S(=O)(=O)CCO)C3)cc1C#N    85.1
CC(C)Oc1ccc(COc2ccc3c(n2)CCN(S(=O)(=O)CCC(=O)O)C3)cc1C#N    84.5
CC(C)Oc1ccc(COc2ccc3c(c2)CCN(CCC(=O)O)C3)cc1C#N    85.1
CC(C)Oc1ccc(COc2ccc3c(c2)CCN(S(=O)(=O)CCC(=O)O)C3)cc1C#N    80.4
CC(C)Oc1ccc(COc2ccc3c(c2)CCN(S(=O)(=O)CCC(=O)O)C3C)cc1C#N (stereo unspecified)    93.2
CC(C)Oc1ccc(COc2ccc3c(c2)OCCN(S(=O)(=O)CCC(=O)O)C3)cc1C#N    71.2
CC(C)Oc1ccc(COc2ccc3c(c2)OCCN(S(=O)(=O)CCCO)C3)cc1C#N    70.2
CC(C)Oc1ccc(COc2ccc3c(c2)OCCN(S(=O)(=O)CC(=O)O)C3)cc1C#N    88.1

[1] CC(C)Oc1ccc(COc2ccc3c(c2)CCCN(S(=O)(=O)CCCO)C3)cc1C#N
[2] CC(C)Oc1ccc(COc2ccc3c(c2)CCN(C(=O)CCC(=O)O)C3)cc1C#N
Query: Select one. Lower activity at 0.25 h, 10 µM: 1 or 2 Pick one and reply with its label.
Reply: 2
(2: 59.7%, 1: 100%)

* * *

- ASSAY TEXT: Observed clearance in ICR mouse at 1 mg/kg, iv measured at 0.25 to 12 hrs by LC-MS/MS analysis
- Format: ADME, organism-based
- CONDITIONS USED: in vivo, time 0.25-12 hrs
QUANTITY: clearance (mL/min/kg)

[P] CC(C)Oc1ccc(COc2ccc3c(c2)CCN(S(=O)(=O)CCC(=O)O)C3)cc1C#N
[Q] CC(C)Oc1ccc(COc2ccc3c(c2)CCCN(S(=O)(=O)CCC(=O)O)C3)cc1C#N
Query: Problem: Given the entries P and Q , determine which has the lower reported clearance. Give the label of your selection.
Reply: P

* * *

- SYSTEM: Sphingosine 1-phosphate receptor 1 (Homo sapiens, UniProt P21453)
- Sequence (P21453 whole entry): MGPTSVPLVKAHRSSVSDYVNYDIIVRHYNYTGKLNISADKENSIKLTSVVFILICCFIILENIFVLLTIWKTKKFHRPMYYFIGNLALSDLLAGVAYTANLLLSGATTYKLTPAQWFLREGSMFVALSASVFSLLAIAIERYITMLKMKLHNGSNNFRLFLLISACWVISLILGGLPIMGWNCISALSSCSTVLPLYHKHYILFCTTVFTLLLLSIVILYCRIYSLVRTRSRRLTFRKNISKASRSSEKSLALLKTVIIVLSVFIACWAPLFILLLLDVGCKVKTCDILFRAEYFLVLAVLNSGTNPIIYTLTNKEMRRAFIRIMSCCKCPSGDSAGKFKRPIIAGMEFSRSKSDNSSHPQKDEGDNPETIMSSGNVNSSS
- ASSAY TEXT: Agonist activity at S1P1 (unknown origin) expressed in PathHunter CHO-K1 EDG1 beta-arrestin cells assessed as beta-arrestin2 recruitment incubated for 90 mins by chemiluminescence based assay
- Format: functional, cell-based
pEC50: −log10 of the molar value.
QUANTITY: pEC50

These solved cases illustrate the format of a correct answer.
CC(C)Oc1ccc(COc2ccc3c(n2)CCN(S(=O)(=O)CCCO)C3)cc1C#N    6.46
CC(C)Oc1ccc(COc2ccc3c(c2)CCCN(S(=O)(=O)CCO)C3)cc1C#N    7.95
CC(C)Oc1ccc(COc2ccc3c(c2)CCN(C(=O)CCO)C3)cc1C#N    6.73

[A] CC(C)Oc1ccc(COc2ccc3c(c2)CCN(S(=O)(=O)CCO)C3)cc1C#N
[B] CC(C)Oc1ccc(COc2ccc3c(c2)CCN(CC(=O)O)C3)cc1C#N
[C] CC(C)Oc1ccc(COc2ccc3c(c2)OCCN(S(=O)(=O)CCC(=O)O)C3)cc1C#N
Query: Ascending sort, pEC50. // respond by listing labels in the order requested
Reply: B, A, C

* * *

- ASSAY TEXT: Microsomal stability in rat liver microsomes assessed as parent compound remaining preincubated for 5 mins followed by NADPH addition measured after 60 mins by LC-MS/MS analysis
- Assay type: ADME, Microsome
- CONDITIONS USED: time 65 min, read-out: Stability
QUANTITY: remaining at 1 h (%)

Worked examples, 3 compounds total:
CC(C)Oc1ccc(COc2ccc3c(c2)CCCN(S(=O)(=O)CCCO)C3)cc1C#N    113
CC(C)Oc1ccc(COc2ccc3c(c2)OCCN(S(=O)(=O)CC(=O)O)C3)cc1C#N    99.6
CC(C)Oc1ccc(COc2ccc3c(c2)CCCN(S(=O)(=O)CC(=O)O)C3)cc1C#N    73.6

[1] CC(C)Oc1ccc(COc2ccc3c(c2)OCCN(S(=O)(=O)CCC(=O)O)C3)cc1C#N
[2] CC(C)Oc1ccc(COc2ccc3c(c2)OCCN(S(=O)(=O)CCCO)C3)cc1C#N
Query: Hi, I'm comparing 1 with 2 and wondering which one has the bigger number for remaining at 1 h. Any idea? Give the label of your selection.
Reply: 1
(1: 92.9%, 2: 6.8%)
